Cited source for all entries: patent US20100196390A1

Molecular target: T1, mouse TrkB monomer (His ECD) (mouse, UniProt P15209 32-429)
T1 construct: extracellular domain; amine-coupled to the chip
T1 sequence (P15209 32-429): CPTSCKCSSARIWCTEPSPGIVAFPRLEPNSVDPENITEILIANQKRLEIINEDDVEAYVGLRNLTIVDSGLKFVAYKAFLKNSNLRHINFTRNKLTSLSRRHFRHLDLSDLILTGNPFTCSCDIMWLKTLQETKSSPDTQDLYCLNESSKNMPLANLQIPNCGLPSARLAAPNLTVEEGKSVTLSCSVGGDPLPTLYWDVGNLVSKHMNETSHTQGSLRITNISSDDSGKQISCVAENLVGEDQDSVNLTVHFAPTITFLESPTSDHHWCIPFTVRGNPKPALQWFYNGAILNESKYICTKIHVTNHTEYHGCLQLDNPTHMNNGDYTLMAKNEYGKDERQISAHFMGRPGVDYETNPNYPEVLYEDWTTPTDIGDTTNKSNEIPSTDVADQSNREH
Assay: SPR (Biacore), Fab over amine-coupled TrkB His ECD monomer, 25 C
Collected pKd values appear next to each entry.
Note: pKd values are expressed as the negative base-10 logarithm of concentration in M.

Consider the following illustrative entries.
[
  {
    "binder": "4B12 (Fab, V domains shown, Fab) VH: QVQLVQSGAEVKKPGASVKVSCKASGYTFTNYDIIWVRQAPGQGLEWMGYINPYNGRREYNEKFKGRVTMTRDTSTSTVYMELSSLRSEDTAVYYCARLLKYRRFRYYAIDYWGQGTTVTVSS VL: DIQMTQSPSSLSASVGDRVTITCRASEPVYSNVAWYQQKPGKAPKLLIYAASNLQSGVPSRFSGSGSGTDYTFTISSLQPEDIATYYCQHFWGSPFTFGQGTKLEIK",
    "pKd": 10.22
  },
  {
    "binder": "C2 (Fab, V domains shown, Fab) VH: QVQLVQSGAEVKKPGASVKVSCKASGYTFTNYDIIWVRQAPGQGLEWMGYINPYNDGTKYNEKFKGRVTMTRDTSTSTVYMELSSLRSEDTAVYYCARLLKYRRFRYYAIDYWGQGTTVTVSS VL: DIQMTQSPSSLSASVGDRVTITCRTSENVYSNLAWYQQKPGKAPKLLIYAASNLQSGVPSRFSGSGSGTDYTFTISSLQPEDIATYYCQHFWGSPFTFGQGTKLEIK",
    "pKd": 8.84
  },
  {
    "binder": "4A6 (Fab, V domains shown, Fab) VH: QVQLVQSGAEVKKPGASVKVSCKASGYTFTNYDIIWVRQAPGQGLEWMGYINPYNRRREYNEKFKGRVTMTRDTSTSTVYMELSSLRSEDTAVYYCARLLKYRRFRYYAIDYWGQGTTVTVSS VL: DIQMTQSPSSLSASVGDRVTITCHASENVYSNLAWYQQKPGKAPKLLIYAASNLQSGVPSRFSGSGSGTDYTFTISSLQPEDIATYYCQHFWGSPFTFGQGTKLEIK",
    "pKd": 10.70
  }
]

Turning to the following binder.
Requested read-out: pKd. Entry: A2 (Fab, V domains shown, Fab) VH: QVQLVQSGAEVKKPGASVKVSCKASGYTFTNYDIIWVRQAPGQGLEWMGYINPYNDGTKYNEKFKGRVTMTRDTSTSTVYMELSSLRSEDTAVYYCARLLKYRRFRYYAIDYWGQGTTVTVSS VL: DIQMTQSPSSLSASVGDRVTITCRASENVYSNLAWYQQKPGKAPKLLIYAASNLQSGVPSRFSGSGSGTDYTFTISSLQPEDIATYYCQHFWYSPWTFGQGTKLEIK
9.29
